- ASSAY_NAME: Kinetic solubility in PBS pH 7.4, HPLC-UV (Example 21, Table 27)
- Type: physicochemical
- EXPERIMENTAL_CONTEXT: phosphate buffered saline, aqueous buffer, kinetic from dmso stock, 0.5 M PBS, shaken minimum 24 h at approximately 25° C., HPLC-UV 270 nm
Here the recorded log10(solubility kinetic) is given for each entry.
Recall that a logarithmic scale is used here: each number is log10 of solubility kinetic in µM.

// known answers, use as guide
{"columns": ["COMPOUND", "VALUE_OBSERVED"],
 "data": [
  ["CCCCCOc1cc(N2CCCN(Cc3ccc(CC(=O)N[C@H]4CN(C)C[C@H]4F)cc3OC)C2=O)ccc1OC", 2.66],
  ["CCCCCOc1cc(N2CCCN(Cc3ccc(CC(=O)N4CC(=O)N(C)C(C)C4)cc3OC)C2=O)ccc1OC (stereo not shown)", 2.42],
  ["CCCCCOc1cc(N2CCCN(Cc3ccc(Cc4ccccn4)cc3OC)C2=O)ccc1OC", 2.64]
]}

Look up and report measured log10(solubility kinetic) for this entry: "CCCCCOc1cc(N2CCCN(Cc3ccnc4c3ccn4CC(=O)NC3CCN(C(C)C)CC3)C2=O)ccc1OC" 2.64

Annotate the compound "COc1cc(CC(=O)N2CCOCC2)ccc1CN1CCCN(c2ccc(OC)c(OCCCC(C)(F)F)c2)C1=O" with its measured log10(solubility kinetic). 2.44

Specify measured log10(solubility kinetic) for "CCCCCOc1cc(N2CCCN(Cc3ccnc4c3c(Cl)cn4CC(=O)N3CCCC3)C2=O)ccc1OC" . 1.79

Tell me log10(solubility kinetic) reported for "CCCCCOc1cc(N2CCCN(Cc3ccc(CNC(=O)c4cnnn4C)cc3OC)C2=O)ccc1OC" 1.70

Identify measured log10(solubility kinetic) corresponding to "CCCCCOc1cc(N2CCCN(Cc3ccc(Cc4cnccn4)cc3OC)C2=O)ccc1OC" 2.00

// Input: "CCCCCOc1cc(N2CCCN(Cc3ccc(CCN4CCCC4)cc3OC)C2=O)ccc1OC" . Output its log10(solubility kinetic) only. 2.61

Query log10(solubility kinetic) for "COc1ccc(N2CCCN(Cc3ccnc4c3ccn4CC(=O)N(C)C)C2=O)cc1OCCCC(F)(F)C(F)(F)F" 1.34

Supply log10(solubility kinetic) value. Item: "CCCCCOc1cc(N2CCCN(Cc3ccc(CNC(C)=O)cc3OC)C2=O)ncc1OC" 2.53

Provide one value: measured log10(solubility kinetic) of "CCCCCOc1cc(N2CCCN(Cc3ccc(Cc4nnn(C)n4)cc3OC)C2=O)ccc1OC" 1.72

Return log10(solubility kinetic) (reported value) for this compound: CCCCCOc1cc(N2CC(CO)CN(Cc3ccc(CC(=O)N(C)C)cc3OC)C2=O)ccc1OC (stereo not shown) 2.69

Hey, just so you know, these numbers are from patent US20230115176A1.
